Test system: Escherichia coli TOP10
Test description: shrunken log2 fold change of peptide-encoding DNA abundance (4.5 h post-induction vs induction); higher = less antimicrobial activity (less host growth inhibition)
Study conditions: time post-induction: 4.5 h; library: site-saturation at positions 5, 18, 19, 20
A collection of sequences and their measured shrunken log2 fold change
Answer using only a numeral; do not append any unit.

Worked examples follow.
RRIRPRPPRLPRPRPRPSFRPRP : -0.142
RRIRVRPPRLPRPRPRPFERPRP : 0.0254
RRIRQRPPRLPRPRPRPGRCPRP : 0.321
RRIRNRPPRLPRPRPRPCSTPRP : -0.194
RRIRYRPPRLPRPRPRPERNPRP : 0.00677

What value of shrunken log2 fold change on Escherichia coli TOP10 does RRIRNRPPRLPRPRPRPYYPPRP have? -0.141

Then what about the sequence RRIRWRPPRLPRPRPRPFFDPRP ? 0.0993

And then RRIRQRPPRLPRPRPRPEVSPRP , what is it? 0.116

Please give the result for RRIRERPPRLPRPRPRPICSPRP too. -0.0316

###

Tested on: Escherichia coli TOP10
Test description: shrunken log2 fold change of peptide-encoding DNA abundance (4.5 h post-induction vs induction); higher = less antimicrobial activity (less host growth inhibition)
Study conditions: time post-induction: 4.5 h; library: site-saturation at positions 5, 18, 19, 20
The following sequences are shown together with reported shrunken log2 fold change values.
Provide a numeric answer; units are not to be included.

Reference set (4 entries):
RRIRSRPPRLPRPRPRPGGPPRP : 0.415
RRIRGRPPRLPRPRPRPEDVPRP : 0.157
RRIRPRPPRLPRPRPRPSGRPRP : 0.0933
RRIRLRPPRLPRPRPRPGNEPRP : -0.0032

Entry under review: RRIRTRPPRLPRPRPRPLPLPRP . Reported shrunken log2 fold change? -0.107

Next entry: RRIRIRPPRLPRPRPRPRHGPRP -0.136

Try the sequence RRIRIRPPRLPRPRPRPDQLPRP -0.172

What do you have for RRIRTRPPRLPRPRPRPNLDPRP ? 0.0338

###

Test system: Escherichia coli TOP10
Test description: shrunken log2 fold change of peptide-encoding DNA abundance (4.5 h post-induction vs induction); higher = less antimicrobial activity (less host growth inhibition)
Study conditions: time post-induction: 4.5 h; library: site-saturation at positions 5, 18, 19, 20
Decide using shrunken log2 fold change: a value greater than or equal to -0.0009 is criterion met, a smaller one is criterion not met.

// known answers, use as guide
RRIRQRPPRLPRPRPRPTWAPRP : criterion met
RRIRMRPPRLPRPRPRPVRDPRP : criterion met
RRIRWRPPRLPRPRPRPELEPRP : criterion met
RRIRQRPPRLPRPRPRPDLQPRP : criterion not met
RRIRVRPPRLPRPRPRPSLSPRP : criterion not met

Does RRIRKRPPRLPRPRPRPVNNPRP have a reported shrunken log2 fold change of at least -0.0009? criterion not met

Lookup RRIRHRPPRLPRPRPRPTVMPRP criterion not met

###

Item-by-item account of shrunken log2 fold change
Test system: Escherichia coli TOP10;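 also: peptides expressed intracellularly from a pBAD plasmid library in pooled LB shake-flask culture, induced with 0.3% L-arabinose, DNA abundance read by NGS, three biological replicates, DESeq2 with apeglm shrinkage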
Test description: shrunken log2 fold change of peptide-encoding DNA abundance (4.5 h post-induction vs induction); higher = less antimicrobial activity (less host growth inhibition)
Study conditions: time post-induction: 4.5 h; library: site-saturation at positions 5, 18, 19, 20
Give the figure only, with no unit attached.

Sample answers from the record:
RRIRLRPPRLPRPRPRPQMCPRP : -0.0742
RRIRLRPPRLPRPRPRPQYRPRP : -0.188
RRIRARPPRLPRPRPRPWLMPRP : 0.0299
RRIRCRPPRLPRPRPRPSIPPRP : -0.969
RRIRARPPRLPRPRPRPVDMPRP : -0.109
RRIRDRPPRLPRPRPRPVGQPRP : 0.435
RRIRNRPPRLPRPRPRPVQLPRP : 0.176
RRIRFRPPRLPRPRPRPHQKPRP : -0.0745
RRIRNRPPRLPRPRPRPFARPRP : -0.113
RRIRGRPPRLPRPRPRPAPTPRP : 1.2

Lab note: need shrunken log2 fold change with Escherichia coli TOP10 for entry RRIRMRPPRLPRPRPRPRIGPRP , please look it up. 0.396

Repeat with RRIRVRPPRLPRPRPRPHRFPRP 0.0259

Next sequence: RRIRWRPPRLPRPRPRPTHWPRP 0.322

Queued: RRIRYRPPRLPRPRPRPQNFPRP -0.00184

Quick one: RRIRLRPPRLPRPRPRPHGYPRP -0.528
